Data origin, for the record: paper PMC6471225

- Tested on: TBEV Neudoerfl strain
- assay.name: microbe, parasite or virus in culture
- Type: cell-based, tick-borne encephalitis virus
- assay.context: Tick-borne encephalitis virus, A549, 72 h, read-out: half-maximum inhibitory concentration (IC50), reduction of viral titer by 50%
pIC50: −log10 of the molar value.

molecule	pIC50
CC1(C)OC2C(COC3CC(OCc4ccccc4)C(OCc4ccccc4)C(CO[Si](C)(C)C(C)(C)C)O3)OC(n3ccc(=O)n(C(=O)c4ccccc4)c3=O)C2O1 (stereo not shown) [Compound 10]	5.19
CC1(C)OC2C(COC3CC(OCc4ccccc4)C(OCc4ccccc4)C(CO)O3)OC(n3ccc(=O)n(C(=O)c4ccccc4)c3=O)C2O1 (stereo not shown) [Compound 11]	4.99
CC1(C)OC2C(COC3CC(OCc4ccccc4)C(OCc4ccccc4)C(COCc4ccccc4)O3)OC(n3ccc(=O)n(C(=O)c4ccccc4)c3=O)C2O1 (stereo not shown) [Compound 4]	5.85
CC(=O)O[C@H]1[C@H](C)O[C@H](OC[C@H]2O[C@@H](n3ccc(=O)n(C(=O)c4ccccc4)c3=O)[C@@H]3OC(C)(C)O[C@@H]32)C[C@@H]1O[Si](C)(C)C(C)(C)C [Compound 2]	5.28

###

- assay.name: in vitro
- assay.context: human, cytotoxic concentration (CC50) required to reduce cell viability by 50%

compound	value.unit	CC50
CC(=O)O[C@H]1[C@H](C)O[C@H](OC[C@H]2O[C@@H](n3ccc(=O)[nH]c3=O)[C@@H]3OC(C)(C)O[C@@H]32)C[C@@H]1O[Si](C)(C)C(C)(C)C [Compound 1]	µM	74
CC1(C)OC2C(COC3CC(OCc4ccccc4)C(OCc4ccccc4)C(CO[Si](C)(C)C(C)(C)C)O3)OC(n3ccc(=O)n(C(=O)c4ccccc4)c3=O)C2O1 (stereo not shown) [Compound 10]	µM	121
CC(=O)OCC1OC(OCC2OC(n3ccc(=O)n(Cc4ccccc4)c3=O)C3OC(C)(C)OC23)CC(OC(C)=O)C1OC(C)=O (stereo not shown) [Compound 8]	µM	225
CC1(C)OC2C(COC3CC(OCc4ccccc4)C(OCc4ccccc4)C(COCc4ccccc4)O3)OC(n3ccc(=O)[nH]c3=O)C2O1 (stereo not shown) [Compound 3]	µM	97
CC1(C)OC2C(COC3CC(OCc4ccccc4)C(OCc4ccccc4)C(CO)O3)OC(n3ccc(=O)n(C(=O)c4ccccc4)c3=O)C2O1 (stereo not shown) [Compound 11]	µM	141
O=c1ccn(C2OC(COC3CC(O)C(O)C(CO)O3)C(O)C2O)c(=O)[nH]1 (stereo not shown) [Compound 9]	µM	238
CC(=O)O[C@H]1[C@H](C)O[C@H](OC[C@H]2O[C@@H](n3ccc(=O)n(C(=O)c4ccccc4)c3=O)[C@@H]3OC(C)(C)O[C@@H]32)C[C@@H]1O[Si](C)(C)C(C)(C)C [Compound 2]	µM	141
CC1(C)OC2C(COC3CC(OCc4ccccc4)C(OCc4ccccc4)C(CO[Si](C)(C)C(C)(C)C)O3)OC(n3ccc(=O)[nH]c3=O)C2O1 (stereo not shown) [Compound 5]	µM	79
CC(=O)OCC1OC(OCC2OC(n3ccc(=O)[nH]c3=O)C3OC(C)(C)OC23)CC(OC(C)=O)C1OC(C)=O (stereo not shown) [Compound 6]	µM	196
CC1(C)OC2C(COC3CC(OCc4ccccc4)C(OCc4ccccc4)C(COCc4ccccc4)O3)OC(n3ccc(=O)n(C(=O)c4ccccc4)c3=O)C2O1 (stereo not shown) [Compound 4]	µM	119
